# target-under-test: alanine:glyoxylate aminotransferase (AGT), AGT WT (major allele) (Homo sapiens, UniProt P21549, I340M/P11L/R197Q)
# Construct: gene AGXT; His-tagged full-length AGT from pCOLDII, expressed in E. coli BL21, IMAC and SEC; about 90 kDa dimer
# Sequence (P21549 1-392 P11L/R197Q/I340M): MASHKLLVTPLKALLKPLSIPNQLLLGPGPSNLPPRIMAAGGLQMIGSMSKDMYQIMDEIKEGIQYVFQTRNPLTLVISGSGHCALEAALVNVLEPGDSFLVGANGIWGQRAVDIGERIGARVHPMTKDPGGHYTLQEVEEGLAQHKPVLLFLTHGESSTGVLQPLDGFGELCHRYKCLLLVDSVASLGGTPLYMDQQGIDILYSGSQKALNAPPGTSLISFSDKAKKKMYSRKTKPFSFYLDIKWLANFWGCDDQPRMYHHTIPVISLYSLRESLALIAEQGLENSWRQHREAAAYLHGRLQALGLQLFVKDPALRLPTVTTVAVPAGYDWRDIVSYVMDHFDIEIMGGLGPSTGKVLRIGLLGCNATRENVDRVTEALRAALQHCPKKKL
# experiment-notes: fluorescence equilibrium titration of apo-AGT
# Assay type: binding
# condition-label: read-out: K d(PLP) (nM) ^b
experimental-readout: Kd (nM)
Hi! Could you send only the number? It should be in nM, unit omitted.

Data request, read-out Kd, for "Cc1ncc(COP(=O)(O)O)c(C=O)c1O"
156

* * *

# target-under-test: alanine:glyoxylate aminotransferase (AGT), AGT WT (major allele) (Homo sapiens)
# Construct: gene AGXT; His-tagged full-length AGT from pCOLDII, expressed in E. coli BL21, IMAC and SEC; about 90 kDa dimer
# experiment-notes: fluorescence equilibrium titration of apo-AGT
# Type: binding
# condition-label: read-out: K d(PLP) (nM) ^b
experimental-readout: Kd (nM)
Hi! Could you send only the number? It should be in nM, unit omitted.

Data request, read-out Kd, for "Cc1ncc(COP(=O)(O)O)c(C=O)c1O"
100

* * *

# target-under-test: alanine:glyoxylate aminotransferase (AGT), AGT WT (major allele) (Homo sapiens, UniProt P21549, A295T/I340M/P11L)
# Construct: gene AGXT; His-tagged full-length AGT from pCOLDII, expressed in E. coli BL21, IMAC and SEC; about 90 kDa dimer
# Sequence (P21549 1-392 P11L/A295T/I340M): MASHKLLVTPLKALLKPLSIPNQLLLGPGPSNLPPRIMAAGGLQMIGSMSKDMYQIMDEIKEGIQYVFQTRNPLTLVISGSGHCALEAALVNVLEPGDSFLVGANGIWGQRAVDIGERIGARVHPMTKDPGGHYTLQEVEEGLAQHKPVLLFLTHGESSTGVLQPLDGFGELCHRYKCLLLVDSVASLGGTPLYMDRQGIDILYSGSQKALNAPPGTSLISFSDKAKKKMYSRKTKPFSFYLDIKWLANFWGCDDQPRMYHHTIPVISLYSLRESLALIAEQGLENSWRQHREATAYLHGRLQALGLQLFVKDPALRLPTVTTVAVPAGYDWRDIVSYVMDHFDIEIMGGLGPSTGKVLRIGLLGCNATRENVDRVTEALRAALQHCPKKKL
# experiment-notes: fluorescence equilibrium titration of apo-AGT
# Type: binding
# condition-label: read-out: K d(PLP) (nM) ^b
experimental-readout: Kd (nM)
Hi! Could you send only the number? It should be in nM, unit omitted.

Data request, read-out Kd, for "Cc1ncc(COP(=O)(O)O)c(C=O)c1O"
71
